- System: HOP-18
- Method description: NCI tumour cell line growth inhibition, 48 h
The source made the active and inactive calls. Cut-off read from the data, not from the text of the source: active = GI50 up to about 1.1 µM and inactive = higher.
Kindly supply the reported GI50 values for the records listed here.

Problem: Look up GI50: C=C1C(=O)C23C(O)CC4C(C)(C)CCC(O)C4(C)C2CC(OC(C)=O)C1[C@H]3O (stereo partly specified)
Result: 2.27 µM (inactive)

Problem: Given the entry Cc1c(C(=O)NCCO)[n+]([O-])c2cc(Cl)ccc2[n+]1[O-] , report its measured GI50.
Result: > 100 µM (inactive)

Problem: What value of measured GI50 is listed for Cc1cc2c(cc1C)[n+]([O-])c(-c1c(Cl)cccc1Cl)c(N)[n+]2[O-] ?
Result: 18.9 µM (inactive)

Problem: Looking for the measured GI50 of COc1ccccc1C(N)c1ccccc1 (stereo unspecified) , can you help?
Result: > 100 µM (inactive)

Problem: Field request: GI50 | item: C=CCN(N=O)C(=O)NCCCC(NC(C)=O)C(=O)NCc1ccccc1 (stereo unspecified)
Result: 10.9 µM (inactive)

Problem: Fill in: GI50 of CCOc1ccccc1N1C(=O)C(=O)C(c2nc3ccccc3o2)C(=O)C1=O is ___
Result: 28.7 µM (inactive)

====

- Tested on: COLO 205
- Method description: NCI tumour cell line growth inhibition, 48 h
The source made the active and inactive calls. Cut-off read from the data, not from the text of the source: active = GI50 up to about 1.1 µM and inactive = higher.
I'd be grateful if you could share measured GI50 for these entries.

Problem: Item under review: O=[N+]([O-])c1ccc(-n2nc3ccc4c(no[n+]4[O-])c3n2)cc1 . Reported GI50?
Result: > 100 µM (inactive)

Problem: # input compound: COC1CC(NC(=O)C(F)(F)F)C(OC(C)=O)C(C)O1 (stereo unspecified) ; wanted: its GI50
Result: > 100 µM (inactive)

Problem: May I ask what GI50 has been recorded for O=C(O)c1ccc(NCc2nc3cc4ccccc4cc3[nH]2)cc1 ?
Result: > 100 µM (inactive)

Problem: I'd like to know its GI50. The compound in question is CCN1CCC(O)(/C=C/c2ccc(C)cc2)C(C(=O)/C=C/c2ccc(C)cc2)C1 (stereo unspecified)
Result: 1.75 µM (inactive)

Problem: What value of GI50 has been reported for the following compound? COc1ccc(N2C(=O)C3c4[nH]c5ccc(OCc6ccccc6)cc5c4C4CCC(C(C)C)CC4C3C2=O)cc1 (stereo unspecified)
Result: > 100 µM (inactive)

Problem: Quick one: GI50 for NC(=O)c1csc(C2OC(COP(=O)(O)CP(=O)(O)OCC3OC(n4cnc5c(N)ncnc54)C(O)C3O)C(O)C2O)n1 (stereo unspecified) ?
Result: 91.2 µM (inactive)

====

Record form. Attribute: GI50. Fill in for each entry.
- System: TK-10
- Method description: NCI tumour cell line growth inhibition, 48 h
The source made the active and inactive calls. Cut-off read from the data, not from the text of the source: active = GI50 up to about 1.1 µM and inactive = higher.

Problem: Returns the measured GI50 for the input compound. Input: CCCCSc1n/c(=C\c2ccc(N(C)C)cc2)c2nnnn12
Result: > 100 µM (inactive)

Problem: Requested field: GI50. Item: CN1CCc2cc3c(c4c2C1C(O)c1ccccc1-4)OCO3 (configuration not stated)
Result: 14.2 µM (inactive)

Problem: Which GI50 is listed for COC(=O)CSc1cc(Cl)c(C)cc1S(=O)(=O)Nc1n[nH]c(N)n1 ?
Result: > 10 µM (inactive)

Problem: Which GI50 reading was recorded for the compound CCOC(=O)c1nc2ccccc2nc1Nc1ccc(OC)cc1 ?
Result: 25.7 µM (inactive)

Problem: Entry O=c1[nH]c2cccccc-2c1-c1nc2ccccc2[nH]1 has what GI50?
Result: 92.7 µM (inactive)

Problem: What value of measured GI50 is listed for COC1CC(OC)C2OC(c3ccccc3)OCC2O1 (configuration not stated) ?
Result: > 100 µM (inactive)

Problem: State the recorded GI50 for this entry: CN(C)c1ccc(/C=C2\C[N+](C)(C)C/C(=C\c3ccc(N(C)C)cc3)C2=O)cc1
Result: 78.7 µM (inactive)

Problem: Which GI50 value is on record for O=[N+]([O-])c1ccc(-n2nc3ccc4c(no[n+]4[O-])c3n2)cc1 ?
Result: > 100 µM (inactive)

Problem: Field request: GI50 | item: CCCCN(CCCC)CC(C(=O)Nc1ccccc1)/C(C)=N\NC(=O)c1ccncc1 (configuration not stated)
Result: > 100 µM (inactive)

Problem: I would be grateful if you could share the reported GI50 for N#C/C(=C/NC(=S)Nc1ccc(S(N)(=O)=O)cc1)C(N)=O .
Result: > 100 µM (inactive)

Problem: For the compound shown here, Cc1nc(SCC(N)=O)c2sc(=S)n(-c3ccccc3)c2n1 , give the reported GI50.
Result: > 10 µM (inactive)

Problem: So what does the record say about GI50 for [N-]=[N+]=Nc1c(Cc2ccccc2)c(=O)oc2ccccc12 ?
Result: 28.2 µM (inactive)

Problem: Need GI50, item COc1ccc(NS(=O)(=O)c2ccc(/N=C3\C=C(Nc4ccc(S(=O)(=O)Nc5ccc(OC)nn5)cc4)C(=O)c4ccccc43)cc2)nn1
Result: 21.9 µM (inactive)

Problem: GET /values?readout=GI50&item= O=C(O)CCC(O)=C1S(=O)(=O)OCCOS1(=O)=O
Result: > 100 µM (inactive)

Problem: For COC1OC(C)C(OC(=O)C(C)(C)C)C(C)(O)C1O (configuration not stated) , what is its reported GI50?
Result: > 100 µM (inactive)

Problem: What measured GI50 goes with CC(C)(C)NCC(O)c1ccc(O)c(CO)n1 (configuration not stated) ?
Result: > 100 µM (inactive)

Problem: What value of GI50 has been recorded for this entry: COc1cc(C(=O)NC2CCc3cc(OC)c(OC)c(OC)c3-c3ccc(OC)c(=O)cc32)cc(OC)c1OC (configuration not stated)
Result: 1.49 µM (inactive)

Problem: GI50 lookup needed for O=P(c1ccccc1)(c1ccccc1)c1ccc2c(c1)OCCOCCOCCOCCO2 , thanks.
Result: > 100 µM (inactive)

Problem: # get_value(readout='GI50', item= OC1[C@@H]2[C@@H](O)[C@H](O)[C@@H](O)N2C[C@@H]1O (some centres not stated) )
Result: > 100 µM (inactive)

Problem: What GI50 value was documented for this compound, CC(CCC(=O)O)(c1ccc(O)cc1)c1ccc(O)cc1 ?
Result: > 100 µM (inactive)

Problem: Fill blank: measured GI50 of the compound Cc1cnc(-c2c[nH]c3ccccc23)nc1-c1c[nH]c2ccccc12 is ____.
Result: 5.31 µM (inactive)

Problem: So what's the measured GI50 for this one? CCOC1OC(COC(=O)C(C)(C)C)C(O)CC1n1cc(C)c(=O)[nH]c1=O (configuration not stated)
Result: > 100 µM (inactive)

Problem: Quick one: GI50 of CCOC(=O)c1c(C)[n+]([O-])c2cc(Cl)c(Cl)cc2[n+]1[O-] ?
Result: 18.1 µM (inactive)

Problem: Consider the compound shown here: CCOC(=O)c1ncn2c1[nH]c(=O)c1ccccc12 What is its recorded GI50?
Result: > 100 µM (inactive)

Problem: // GI50 lookup, key: C/C=C(/I)CBr
Result: > 10 µM (inactive)

Problem: Request the reported GI50 associated with O=C1Oc2cc3c(c4cccc1c24)O[C@H](c1ccccc1)[C@@H](c1ccccc1)[C@@H]3c1ccc(Cl)cc1
Result: 39.3 µM (inactive)

Problem: Record request: GI50 value, item O=C(O)c1cc(-c2ccc3cc4c(cc3c2)OCO4)nc2ccccc12
Result: 18.2 µM (inactive)
